- system-tested: human recombinant cytochrome P450 2C19 (Homo sapiens, UniProt P33261)
- Sequence (P33261 whole entry): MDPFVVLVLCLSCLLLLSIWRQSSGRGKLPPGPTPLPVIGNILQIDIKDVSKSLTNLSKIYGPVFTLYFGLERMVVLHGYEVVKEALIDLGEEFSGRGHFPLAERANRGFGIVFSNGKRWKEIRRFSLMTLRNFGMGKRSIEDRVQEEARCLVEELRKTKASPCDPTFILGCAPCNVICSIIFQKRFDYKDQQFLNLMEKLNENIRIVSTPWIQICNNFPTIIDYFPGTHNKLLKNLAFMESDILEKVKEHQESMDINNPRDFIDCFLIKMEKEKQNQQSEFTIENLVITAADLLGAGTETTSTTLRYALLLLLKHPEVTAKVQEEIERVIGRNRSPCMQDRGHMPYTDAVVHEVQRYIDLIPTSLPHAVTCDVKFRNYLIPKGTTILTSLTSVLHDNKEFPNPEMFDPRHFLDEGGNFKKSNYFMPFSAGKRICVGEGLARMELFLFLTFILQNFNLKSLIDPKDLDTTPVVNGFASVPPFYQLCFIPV
- test-method-notes: Biological Test Example 8: CYP2C19 inhibition ([N-methyl-14C]-Diazepam N-demethylation)
observation-type: pIC50
Keep in mind that pIC50 stands for -log10 of concentration in molar terms.

Reported pIC50 of C[C@@H](c1ccc(-c2cc[nH]c(=O)c2)cc1)N1CC[C@](CC(C)(C)C#N)(c2ccccc2)OC1=O [Example 14] : 4.62

Recorded pIC50 (compound C[C@@H](c1ccc(-c2ccc(=O)n(CC3CC3)c2)cc1)N1CC[C@](CC(C)(C)O)(c2ccccc2)OC1=O [Example 76] ): 5.05

The compound CC[C@@H](c1ccc(-c2ccn(C)c(=O)c2)cc1)N1CC[C@](CC(C)(C)O)(c2ccccc2)OC1=O [Example 55] showed pIC50 equal to 4.89

The compound identified as C[C@@H](c1ccc(-c2ccc(=O)n(C)c2)cc1)N1CC[C@](CCCO)(c2ccccc2)OC1=O [Example 30] registered its pIC50 at 4.57

Short answer for C[C@@H](c1ccc(-c2ccc(=O)n(CC(F)(F)F)c2)cc1)N1CC[C@](CC(C)(C)O)(c2ccccc2)OC1=O [Example 67] : pIC50 was 4.47

Consider C[C@@H](c1ccc(-c2ccn(CC(F)(F)F)c(=O)c2)cc1)N1CC[C@](CC(C)(C)O)(c2ccccc2)OC1=O [Example 66] . Its measured pIC50 is 4.96

Sample CC[C@@H](c1ccc(-c2ccc(=O)n(C)c2)cc1)N1CC[C@](CCO)(c2ccccc2)OC1=O [Example 40] ; pIC50 observed: 4.89

// pIC50 lookup, compound = CC(C)n1ccc(-c2ccc([C@H](C)N3CC[C@](CC(C)(C)O)(c4ccccc4)OC3=O)cc2)cc1=O [Example 68] , result: 4.55

Noted for CCn1c(C)cc(-c2ccc([C@H](C)N3CC[C@](CC(C)(C)O)(c4ccccc4)OC3=O)cc2)cc1=O [Example 72] : its pIC50 reads 5.10

Memo: C[C@@H](c1ccc(-c2ccc(=O)[nH]c2)cc1)N1CC[C@](CC(C)(C)C#N)(c2ccccc2)OC1=O [Example 71] , reported pIC50: 4.62

Note to self: pIC50 recorded for C[C@@H](c1ccc(-c2ccc(=O)n(C)c2)cc1)N1CC[C@](CC(C)(C)C#N)(c2ccccc2)OC1=O [Example 49] was 4.34

For C[C@@H](c1ccc(-c2ccn(C3CC3)c(=O)c2)cc1)N1CC[C@](CC(C)(C)O)(c2ccccc2)OC1=O [Example 75] the compound record lists pIC50 as 4.62

Note to self: pIC50 recorded for CC[C@@H](c1ccc(-c2ccc(=O)n(C)c2)cc1)N1CC[C@](CC(C)(C)O)(c2ccccc2)OC1=O [Example 54] was 4.74

Form: compound = Cc1cc(-c2ccc([C@H](C)N3CC[C@](CC(C)(C)O)(c4ccccc4)OC3=O)cc2)cn(C)c1=O [Example 61] ; pIC50 = 4.74

For CCn1ccc(-c2ccc([C@H](C)N3CC[C@](CC(C)(C)O)(c4ccccc4)OC3=O)cc2)cc1=O [Example 65] the compound record lists pIC50 as 4.60

Recorded pIC50 (compound CC(C)n1cc(-c2ccc([C@H](C)N3CC[C@](CC(C)(C)O)(c4ccccc4)OC3=O)cc2)ccc1=O [Example 59] ): 4.43

meta.source: patent EP2424865B1
